B1: library; numbered along this chain (parent)
chain: MATDAALRRLLRLHRTEIAVAVDSAFPLLHALADHDVVPEDKFQETLHLKEKEGCPQAFHALLSWLLTQDSTAILDFWRVLFKDYNLERYGRLQPILDSFPKDVDLSQPRKGRKPPAVPKALVPPPRLPTKRKASEEARAAAPAALTPRGTASPGSQLKAKPPKKPESSAEQQRLPLGNGIQTMSASVQRAVAMSSGDVPGARGAVEGILIQQVFESGGSKKCIQVGGEFYTPSKFEDSGSGKNKARSSSGPKPLVRAKGAQGAAPGGGEARLGQQGSVPAPLALPSDPQLHQKNEDECAVCRDGGELICCDGCPRAFHLACLSPPLREIPSGTWRCSSCLQATVQEVQPRAEEPRPQEPPVETPLPPGLRSAGEEVRGPPGEPLAGMDTTLVYKHLPAPPSAAPLPGLDSSALHPLLCVGPEGQQNLAPGARCGVCGDGTDVLRCTHCAAAFHWRCHFPAGTSRPGTGLRCRSCSGDVTPAPVEGVLAPSPARLAPGPAKDDTASHEPALHRDDLESLLSEHTFDGILQWAIQSMARPAAPFPS

variants of: B1; test: AIRE transcriptional activation functional score (insulin promoter-GFP; nonsense median 0, synonymous median 1) (normalised score); higher = higher AIRE activity (more reporter activation); conditions: with insulin promoter-GFP reporter in HEK293
Is AIRE transcriptional activation functional score at least 0.7? Then true (1). If not, false (0).

{"variant_notation": "K222M", "class": "false (0)"}
{"variant_notation": "S24A", "class": "false (0)"}
{"variant_notation": "E88D", "class": "false (0)"}
{"variant_notation": "F26G", "class": "false (0)"}
{"variant_notation": "A452V", "class": "true (1)"}
{"variant_notation": "A284Q", "class": "true (1)"}
{"variant_notation": "P497V", "class": "true (1)"}
{"variant_notation": "C302K", "class": "false (0)"}
{"variant_notation": "V362N", "class": "true (1)"}
{"variant_notation": "Q212E", "class": "false (0)"}
{"variant_notation": "T183V", "class": "true (1)"}
{"variant_notation": "R9D", "class": "false (0)"}
{"variant_notation": "G91D", "class": "false (0)"}
{"variant_notation": "R203K", "class": "false (0)"}
{"variant_notation": "L409M", "class": "true (1)"}
{"variant_notation": "R174Y", "class": "true (1)"}
{"variant_notation": "R9S", "class": "true (1)"}
{"variant_notation": "P460C", "class": "false (0)"}
{"variant_notation": "D34I", "class": "false (0)"}
{"variant_notation": "I181Q", "class": "false (0)"}
{"variant_notation": "A2T", "class": "false (0)"}
